procedure summary: RAM signaling pathway blockade in yeast – S. cerevisiae, Pdr1DBD-CYC8 efflux-inhibited sensitized strain, primary screen (AID 1298);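 note: 0% = DMSO untreated cells without growth and 100% = 10 µM 1-NA-PP1 full growth; higher means more yeast growth rescued from 5-FOA killing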
experimental conditions: S. cerevisiae cbk1-as DSE1-URA3 strain, 5-FOA growth OD615, 2 d; at 50 µM; active compounds read high
readout: RAM network inhibition (%)
Numbers only, in %.

Would you be so kind as to report RAM network inhibition for each listed record?
1. O=C(NCCCN1CCOCC1)C1CCC(=O)N1CCc1ccccc1 (stereo not drawn)
2. Cc1n[nH]c(C)c1S(=O)(=O)N(CC(=O)NC1CCCC1)c1ccc(C(C)C)cc1
3. O=C(CC12CC3CC(CC(C3)C1)C2)N1CCOCC1

output:
1: 0.63; 2: 3.37; 3: 7.72
